The measurements presented in this section are drawn from ChEMBL document CHEMBL3507680.

// cytotoxicity at 70.5 h lookup, one value per entry
- ASSAY: Human HepG2 cell viability assay in 384 well format
- Type: toxicity, cell-based
- Parameters: dose 125 nL, time 70.5 hour; concentration not given beside the values
- MEASUREMENT PARAMETERS: HepG2 cells, read-out: Inhibition
EXPERIMENTAL ENDPOINT: cytotoxicity at 70.5 h (%)

In [3]: df
Out[3]:
                           structure_string  result_value
0     O=C(NC1CC1)c1cc(NC(=O)N2CCSCC2)ccc1Cl          15.9
1       c1nc2onc(C3CC3)c2cc1-c1nnc(C2CC2)o1           1.7
2       COCC(=O)N1CCn2c(CN3CCN(C)CC3)cnc2C1         -3.31
3  Cc1cc(-c2ccc(=O)n(C3CCN(C(=O)C4CC4)CC3)n2)c(C)o1         -2.33
4        CC(=O)N1CCCN(CCn2nc3ccccn3c2=O)CC1        -0.882
5  Cc1cc(C(=O)N2C[C@@H]3[C@@H](CN(C)CCc4ccccn4)[C@@H]3C2)c(C)o1          25.1

###

- ASSAY: Human HepG2 cell viability assay in 384 well format
- Assay type: toxicity, cell-based
- Design: dose 125 nL, time 70.5 hour; concentration not given beside the values
- MEASUREMENT PARAMETERS: HepG2 cells, read-out: Inhibition
Each item that follows carries a reported cytotoxicity at 70.5 h.
EXPERIMENTAL ENDPOINT: cytotoxicity at 70.5 h (%)

>>> print(df.to_string())
                                    molecule   experimental_endpoint  result_value
 0  O=C(C1CCOCC1)N1CCO[C@@H]2[C@@H](OCc3ccncc3)CC[C@@H]21  cytotoxicity at 70.5 h         -22.7
 1         CN(CCC#N)C(=O)Cc1csc(-c2ncccn2)n1  cytotoxicity at 70.5 h         -3.29
 2  Cc1occc1C(=O)N1CCC2(CC1)C(c1cnn(C)c1)CC(=O)N2C (stereo not drawn)  cytotoxicity at 70.5 h          4.52
 3  CN1CC(=O)N(c2ccccc2)CC12CCN(Cc1cccnc1)C2 (stereo not drawn)  cytotoxicity at 70.5 h         -11.3
 4  O=C(CCn1ccc(=O)[nH]c1=O)N1CCC(OCc2cccnc2)CC1  cytotoxicity at 70.5 h          27.2
 5  CCCC1(CO)CCCN(c2ncccc2F)C1 (stereo not drawn)  cytotoxicity at 70.5 h         -7.06
 6  CNc1nc2c(s1)C(c1ccccc1Cl)CC(=O)N2 (stereo not drawn)  cytotoxicity at 70.5 h         -21.9
 7  Cn1cc(N2CCC3(CCCN(Cc4ccoc4)C3)C2=O)cn1 (stereo not drawn)  cytotoxicity at 70.5 h         -6.63
 8  CC(C)c1cc(NC(CCO)c2ccccc2)n2nccc2n1 (stereo not drawn)  cytotoxicity at 70.5 h          3.68
 9  COCCNC(=O)[C@@H]1C[C@@H]2CCN(c3ncccn3)C[C@H]2O1  cytotoxicity at 70.5 h          24.2
10  O=C(c1ccc[nH]1)N1CCCC(c2cc(C(F)(F)F)[nH]n2)C1 (stereo not drawn)  cytotoxicity at 70.5 h        -0.878
11  CN(Cc1nccn1C)C(CO)c1cccc(Br)c1 (stereo not drawn)  cytotoxicity at 70.5 h         -28.6
12           c1ccc(Cc2nc(CNCCn3cccn3)cs2)cc1  cytotoxicity at 70.5 h          1.06
13  CC(NCc1ccccc1Cl)c1ccc2[nH]c(=O)[nH]c2c1 (stereo not drawn)  cytotoxicity at 70.5 h          7.48
14  CCCC(NC(=O)c1ccc(C)cc1C)c1nnn[nH]1 (stereo not drawn)  cytotoxicity at 70.5 h          0.32
15  O=C(O)C1c2nc[nH]c2CCN1Cc1ccccc1-c1ccccc1 (stereo not drawn)  cytotoxicity at 70.5 h         -3.54
16  Cc1cccc(CN2C(=O)CCC23CCN(c2ncc(F)cn2)CC3)n1  cytotoxicity at 70.5 h         -5.55
17  CCN1CCOCC2(CCCN(C(=O)c3conc3C)C2)C1 (stereo not drawn)  cytotoxicity at 70.5 h         -1.18
18   O=C(c1cncs1)N1CCc2[nH]nc(Nc3ccccc3)c2C1  cytotoxicity at 70.5 h         -3.16
19  O=C1CCCN1CCCN1CCCC(Cn2cncn2)C1 (stereo not drawn)  cytotoxicity at 70.5 h          3.37
20  CC(=O)NC1CCN(c2nc(C)nc3c2c(C)nn3C)C1 (stereo not drawn)  cytotoxicity at 70.5 h          20.8
21  CNc1cc(N2CCCC2CNCc2cnc(C)cn2)ncn1 (stereo not drawn)  cytotoxicity at 70.5 h         -8.09
22  COCCC(=O)N1CCC2(COCc3c(C)nc(NCC4CC4)nc32)C1 (stereo not drawn)  cytotoxicity at 70.5 h         -4.97
23  O=C(Nc1cccc(N2CCCC2)c1)N[C@H](CCO)c1ccccc1  cytotoxicity at 70.5 h          2.92
24  COCCn1ccnc1C1CCCN(C(=O)c2cccnc2SC)C1 (stereo not drawn)  cytotoxicity at 70.5 h            13
25     O=C(c1ccc(Cl)cc1)N1CCC(N2CCCOC2=O)CC1  cytotoxicity at 70.5 h         -6.91
26  Nc1nc(CN2CCOC(Cn3cncn3)C2)nc2ccccc12 (stereo not drawn)  cytotoxicity at 70.5 h         -3.11
27           COCCOc1ccc(CNc2cnc3ccccc3n2)cn1  cytotoxicity at 70.5 h         -10.9
28  CC(C)CCN1CCc2[nH]nc(C(=O)N3CCCC3C)c2C1 (stereo not drawn)  cytotoxicity at 70.5 h         -6.21
29  CNS(=O)(=O)CC1CCCN1C(=O)c1cccc(Cl)c1 (stereo not drawn)  cytotoxicity at 70.5 h         -7.35
30              CCN(C)C(=O)CCN(C)Cc1cnc(C)s1  cytotoxicity at 70.5 h        -0.298
31  CC(C)N1[C@H](Cn2cccn2)C[C@@H]2CN(Cc3ccoc3)CC[C@@H]21  cytotoxicity at 70.5 h         -13.4
32  c1ccc(-c2noc([C@@H]3Cc4nc[nH]c4CN3)n2)cc1  cytotoxicity at 70.5 h           -14
33  COc1ccc(C(CO)NC(=O)Nc2cccnc2)cc1 (stereo not drawn)  cytotoxicity at 70.5 h          12.6
34   Cn1cc(CN2CCc3nc(-c4ccccn4)nc(O)c3C2)cn1  cytotoxicity at 70.5 h          22.4
35                   c1c(CN2CCCC2)nc2n1CCNC2  cytotoxicity at 70.5 h          9.22
36  CCOCCCNc1nc(O)cc(C2CC(=O)N(C)C2)n1 (stereo not drawn)  cytotoxicity at 70.5 h          24.8
37  COc1c(CNC2CCC(O)CC2)c(C(C)C)nn1C (stereo not drawn)  cytotoxicity at 70.5 h         -5.04
38  CC(O)c1cn(Cc2cccc(C(F)(F)F)c2)nn1 (stereo not drawn)  cytotoxicity at 70.5 h         -4.44
39    CN1CCN(C(=O)c2ccc(=O)n(C)c2)Cc2ccccc21  cytotoxicity at 70.5 h         -2.39
40  Cc1nc(CN(C)C2CCN(Cc3ccc(C(N)=O)cc3)C2)no1 (stereo not drawn)  cytotoxicity at 70.5 h         -11.2
41  NC(=O)NC(=O)CCN1CCCC1c1cccc2c1OCCO2 (stereo not drawn)  cytotoxicity at 70.5 h         -11.6
42  CCOC(=O)N[C@H]1C[C@@H](C(=O)NCCc2cccc(Cl)c2)N(C)C1  cytotoxicity at 70.5 h         -23.6
43  CN1CC2(CCN(C(=O)c3ccc(=O)n(C)c3)CC2)CC1=O  cytotoxicity at 70.5 h          18.9
44  CCN1CC2(CCN(CC3COCCO3)CC2)OC1=O (stereo not drawn)  cytotoxicity at 70.5 h          44.4
45  O=C(NC1CCCCC1)N1CCCC1c1nnc2n1CCNC2 (stereo not drawn)  cytotoxicity at 70.5 h          19.4
46  Cc1cc(C)nc(N2Cc3cnn(Cc4ccc(F)cc4)c3C2)n1  cytotoxicity at 70.5 h          13.2
47  O=C(NCc1ccc(F)cc1)N1CCN(CC(O)C2CC2)CC1 (stereo not drawn)  cytotoxicity at 70.5 h         -2.01
